Kindly state log10(Minimum inhibitory concentration) for each of the entries shown.
test system: EKO-35 araC::macAB Pore; experiment: MIC susceptibility profiling, porinated efflux platform; format: cell-based, Escherichia coli; conditions: EKO-35 araC::macAB Pore; technical duplicate
Values reflect log10 of reported Minimum inhibitory concentration (µg/mL).

Please give the measured log10(Minimum inhibitory concentration) for this molecule: O=C(Nc1cccc(Oc2c(F)c(F)c(F)c(F)c2F)c1)c1ccccc1 [compound 1] 2.51

Please give the measured log10(Minimum inhibitory concentration) for this molecule: CC(C)c1ccc(C=C(C#N)c2nc3ccccc3[nH]2)cc1 [compound 12] 2.51

Please give the measured log10(Minimum inhibitory concentration) for this molecule: O=[N+]([O-])c1ccc2c(c1)C(=NO)c1cc([N+](=O)[O-])ccc1-2 [compound 11] -1.11

Please give the measured log10(Minimum inhibitory concentration) for this molecule: O=C(Nc1ccccc1)Nc1ccc(Br)c(C(F)(F)F)c1 [compound 6] 2.51

Please give the measured log10(Minimum inhibitory concentration) for this molecule: N#CC(C#N)=NNc1cccc(Cl)c1 [CCCP] 0.80

Please give the measured log10(Minimum inhibitory concentration) for this molecule: C[C@H](CCC(=O)NCCS(=O)(=O)[O-])[C@H]1CC[C@H]2[C@@H]3CC[C@@H]4C[C@H](O)CC[C@]4(C)[C@H]3C[C@H](O)[C@]12C.[Na+] [sodium taurodeoxycholate] 2.40

Please give the measured log10(Minimum inhibitory concentration) for this molecule: CC(C)(C)c1cc(C(=O)NNC(=O)Nc2cccc3ccccc23)n(Cc2ccc(F)cc2)n1 [compound 4] 0.70

Please give the measured log10(Minimum inhibitory concentration) for this molecule: N#CC(=NNc1ccc(F)c(Cl)c1)C(=O)c1ccc(Cl)cc1 [compound 15] 2.51

----------
system: EKO-35 araC::mdtEF Pore; assay: MIC susceptibility profiling, porinated efflux platform; format: cell-based, Escherichia coli; settings: EKO-35 araC::mdtEF Pore compared to EKO-35-Pore
Kindly state Fold changes of MICs for each of the entries shown.
Kindly provide the numeric value in fold only, without the unit symbol.

Please give the measured Fold changes of MICs for this compound: [H]/N=C(\N/C(=N/[H])NCCCCCCNC(=N)NC(=N)Nc1ccc(Cl)cc1)Nc1ccc(Cl)cc1 1

Please give the measured Fold changes of MICs for this compound: COc1cccc2c1C(=O)c1c(O)c3c(c(O)c1C2=O)C[C@@](O)(C(=O)CO)C[C@@H]3O[C@H]1C[C@H](N)[C@H](O)[C@H](C)O1 32

Please give the measured Fold changes of MICs for this compound: O=C(NC(=O)N1CCc2c([nH]c3ccccc23)C1C(F)(F)F)c1ccccc1 (centres unmarked) 8

Please give the measured Fold changes of MICs for this compound: CCn1cc(C(=O)O)c(=O)c2ccc(C)nc21 1

Please give the measured Fold changes of MICs for this compound: Nc1ccccc1SCc1nc(-c2ccc(Cl)cc2)no1 16

Please give the measured Fold changes of MICs for this compound: Cn1cc(Br)c(-c2cccc(NC(=O)Nc3ccc(OC(F)(F)F)cc3)c2)n1 1

Please give the measured Fold changes of MICs for this compound: C=C1CCO[C@]2([C@@H](O)[C@@](C)(O)CO)NC(=O)[C@@]1(O)NC2=O 1

Please give the measured Fold changes of MICs for this compound: [H]/N=C(/N)N[C@H]1[C@H](O)[C@@H](O)[C@H](O[C@@H]2O[C@@H](C)[C@](O)(C=O)[C@H]2O[C@@H]2O[C@@H](CO)[C@H](O)[C@@H](O)[C@@H]2NC)[C@@H](N/C(N)=N\[H])[C@@H]1O 1

----------
Kindly state MIC for each of the entries shown.
system: EKO-35 araC::acrEF; assay: MIC susceptibility profiling, efflux platform; assay type: cell-based, Escherichia coli; conditions: Escherichia coli; Table 13A; non-porinated; technical duplicate; read-out: Minimum Inhibitory Concentration, EKO-35 araC::acrEF
Kindly provide the numeric value in µg/mL only, without the unit symbol.

Please give the measured MIC for this molecule: CN(C)c1ccc(O)c2c1C[C@H]1C[C@H]3[C@H](N(C)C)C(O)=C(C(N)=O)C(=O)[C@@]3(O)C(O)=C1C2=O [minocycline] 0.098

Please give the measured MIC for this molecule: COc1cc(Cc2cnc(N)nc2N)cc(OC)c1OC [trimethoprim] 0.781

Please give the measured MIC for this molecule: CC[C@H]1OC(=O)[C@H](C)[C@@H](O[C@H]2C[C@@](C)(OC)[C@@H](O)[C@H](C)O2)[C@H](C)[C@@H](O[C@@H]2O[C@H](C)C[C@H](N(C)C)[C@H]2O)[C@](C)(O)C[C@@H](C)C(=O)[C@H](C)[C@@H](O)[C@]1(C)O [erythromycin] 50

Please give the measured MIC for this molecule: Cc1onc(-c2ccccc2)c1C(=O)N[C@@H]1C(=O)N2[C@@H]1SC(C)(C)[C@@H]2C(=O)O [oxacillin] 160

Please give the measured MIC for this molecule: O=C(N[C@H](CO)[C@H](O)c1ccc([N+](=O)[O-])cc1)C(Cl)Cl [chloramphenicol] 1.56

Please give the measured MIC for this molecule: Nc1ccc(S(=O)(=O)Nc2nccs2)cc1 [Sulfathiazole] 10

Please give the measured MIC for this molecule: O=C(O)c1cn(C2CC2)c2cc(N3CCNCC3)c(F)cc2c1=O [ciprofloxacin] 0.02

----------
tested on: E. coli EKO-35; test: microbe, parasite or virus in culture; format: cell-based, Escherichia coli; conditions: Table 13A; non-porinated; technical duplicate
Kindly state Minimum Inhibitory Concentration, EKO-35 for each of the entries shown.
Kindly provide the numeric value in µg/mL only, without the unit symbol.

GET /values?readout=Minimum Inhibitory Concentration, EKO-35&system=E. coli EKO-35&item= Cn1cc(Br)c(-c2cccc(NC(=O)Nc3ccc(OC(F)(F)F)cc3)c2)n1 [compound 14] 320

GET /values?readout=Minimum Inhibitory Concentration, EKO-35&system=E. coli EKO-35&item= O=C(Nc1ccccc1C(=O)Nc1nnc(C(F)(F)F)s1)c1ccccc1Cl [compound 19] 320

GET /values?readout=Minimum Inhibitory Concentration, EKO-35&system=E. coli EKO-35&item= O=c1oc(-c2ccccc2Cl)nn1-c1ccc(C(F)(F)F)cn1 [compound 5] 20

GET /values?readout=Minimum Inhibitory Concentration, EKO-35&system=E. coli EKO-35&item= O=C(NC(=O)N1CCc2c([nH]c3ccccc23)C1C(F)(F)F)c1ccccc1 (centres unmarked) [compound 13] 40

GET /values?readout=Minimum Inhibitory Concentration, EKO-35&system=E. coli EKO-35&item= N#CC(=NNc1ccc(F)c(Cl)c1)C(=O)c1ccc(Cl)cc1 [compound 15] 320

GET /values?readout=Minimum Inhibitory Concentration, EKO-35&system=E. coli EKO-35&item= C[n+]1c2cc(N)ccc2cc2ccc(N)cc21.[Cl-] [acriflavine] 0.098

GET /values?readout=Minimum Inhibitory Concentration, EKO-35&system=E. coli EKO-35&item= Nc1ccccc1SCc1nc(-c2ccc(Cl)cc2)no1 [compound 16] 10

GET /values?readout=Minimum Inhibitory Concentration, EKO-35&system=E. coli EKO-35&item= O=C(Nc1cccc(Oc2c(F)c(F)c(F)c(F)c2F)c1)c1ccccc1 [compound 1] 320

GET /values?readout=Minimum Inhibitory Concentration, EKO-35&system=E. coli EKO-35&item= O=C(Nc1ccccc1)Nc1ccc(Br)c(C(F)(F)F)c1 [compound 6] 320

GET /values?readout=Minimum Inhibitory Concentration, EKO-35&system=E. coli EKO-35&item= N#CC(C#N)=NNc1ccc(-n2ccc(C(F)(F)F)n2)cc1 [compound 8] 320

GET /values?readout=Minimum Inhibitory Concentration, EKO-35&system=E. coli EKO-35&item= COC(=O)c1sc(N2CCCC2)c(C#N)c1-c1cccs1 [compound 10] 160

----------
tested on: EKO-35 araC::emrKY Pore
Binarize MIC at 0.8 µg/mL; below is met, at or above is not met.

Lab note: confirm whether the reported MIC for this compound is below 0.8 µg/mL, equality not counting. compound: CC[n+]1c(-c2ccccc2)c2cc(N)ccc2c2ccc(N)cc21 [ethidium bromide] met

Lab note: confirm whether the reported MIC for this compound is below 0.8 µg/mL, equality not counting. compound: Cc1onc(-c2ccccc2)c1C(=O)N[C@@H]1C(=O)N2[C@@H]1SC(C)(C)[C@@H]2C(=O)O [oxacillin] met

Lab note: confirm whether the reported MIC for this compound is below 0.8 µg/mL, equality not counting. compound: CC1(C)S[C@@H]2[C@H](NC(=O)[C@H](N)c3ccccc3)C(=O)N2[C@H]1C(=O)O [ampicillin] not met

Lab note: confirm whether the reported MIC for this compound is below 0.8 µg/mL, equality not counting. compound: O=C(O)c1cn(C2CC2)c2cc(N3CCNCC3)c(F)cc2c1=O [ciprofloxacin] met

----------
tested on: wild-type E. coli K-12 str. BW25113; test: microbe, parasite or virus in culture; type: cell-based, Escherichia coli; details: Escherichia coli, BW25113; Table 10; without pore; technical duplicate; read-out: Minimum inhibitory concentration (MIC), K-12
Parameter measured: MIC (µg/mL)
Kindly provide the numeric value in µg/mL only, without the unit symbol.

Please give the measured MIC for this molecule: NC[C@H]1O[C@H](O[C@H]2[C@H](O)[C@@H](O[C@H]3O[C@H](CO)[C@@H](O)[C@H](N)[C@H]3O)[C@H](N)C[C@@H]2N)[C@H](O)[C@@H](O)[C@@H]1O 3.12

Please give the measured MIC for this molecule: CC[C@H]1OC(=O)[C@H](C)[C@@H](O[C@H]2C[C@@](C)(OC)[C@@H](O)[C@H](C)O2)[C@H](C)[C@@H](O[C@@H]2O[C@H](C)C[C@H](N(C)C)[C@H]2O)[C@](C)(O)C[C@@H](C)C(=O)[C@H](C)[C@@H](O)[C@]1(C)O 100

Please give the measured MIC for this molecule: C[C@@H]1O[C@@H]1P(=O)(O)O 6.25

Please give the measured MIC for this molecule: COc1cccc2c1C(=O)c1c(O)c3c(c(O)c1C2=O)C[C@@](O)(C(=O)CO)C[C@@H]3O[C@H]1C[C@H](N)[C@H](O)[C@H](C)O1 200
